# experimentalSystem: SARS-CoV-2 Nsp15 (Severe acute respiratory syndrome coronavirus 2, UniProt P0DTD1)
outcomeMeasure: IC50

molecule="N=C1CCCN1Cc1[nH]c(=O)[nH]c(=O)c1Cl [tipiracil]" result="7.5 µM"

---

# experimentalSystem: Nsp15 (Severe acute respiratory syndrome coronavirus 2)
outcomeMeasure: IC50 (µM)

recordsmiles=N=C1CCCN1Cc1[nH]c(=O)[nH]c(=O)c1Cl outcomemeasure=IC50 resultnumber=72
